target: factor Xa (Homo sapiens); construct: tissue Octapharma; test: Factor Xa-inhibitory activity of the potential inhibitors in plasma samples; conditions: citrate plasma (Octapharma); factor X activated by rattlesnake toxin (RVV); ChromozymX chromogenic substrate, 405 nm
pIC50: −log10 of the molar value.
measurement_kind: pIC50

CC(=O)COc1cccn(-c2ccc(N3C[C@H](CNC(=O)c4ccc(Cl)s4)OC3=O)cc2C)c1=O [Example 7]	6.69
O=C(NC[C@H]1CN(c2ccc(N3CCCN(CCO)C3=O)c(C(F)(F)F)c2)C(=O)O1)c1ccc(Cl)s1 [Example 38]	6.60
Cc1cc(N2C[C@H](CNC(=O)c3ccc(Cl)s3)OC2=O)ccc1-n1cccc(OCC(C)(C)O)c1=O [Example 9]	6.83
CCCc1cc(N2C[C@H](CNC(=O)c3ccc(Cl)s3)OC2=O)ccc1-n1ccccc1=O [Example 19]	6.44
O=C(NC[C@H]1CN(c2ccc(N3CCOCCC3=O)c(C3CC3)c2)C(=O)O1)c1ccc(Cl)s1 [Example 30]	7.60
COCc1cc(N2C[C@H](CNC(=O)c3ccc(Cl)s3)OC2=O)ccc1N1CCCCC1=O [Example 27]	7.41
CCOc1nccn(-c2ccc(N3C[C@H](CNC(=O)c4ccc(Cl)s4)OC3=O)cc2C)c1=O [Example 18]	6.50

* * *

biological target: factor Xa (Homo sapiens, UniProt P00742); construct: tissue Octapharma; test: Factor Xa-inhibitory activity of the potential inhibitors in plasma samples; settings: citrate plasma (Octapharma); factor X activated by rattlesnake toxin (RVV); ChromozymX chromogenic substrate, 405 nm
Sequence (P00742 235-488 limits assumed): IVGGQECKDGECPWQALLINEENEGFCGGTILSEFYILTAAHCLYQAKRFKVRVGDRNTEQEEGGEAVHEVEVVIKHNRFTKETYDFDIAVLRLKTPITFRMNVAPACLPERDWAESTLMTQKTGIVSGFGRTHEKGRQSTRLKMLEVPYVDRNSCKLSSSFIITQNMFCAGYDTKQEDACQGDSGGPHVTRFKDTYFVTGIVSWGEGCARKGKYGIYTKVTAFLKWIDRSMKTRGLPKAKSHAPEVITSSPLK
Sequence (P00742 41-179 limits assumed): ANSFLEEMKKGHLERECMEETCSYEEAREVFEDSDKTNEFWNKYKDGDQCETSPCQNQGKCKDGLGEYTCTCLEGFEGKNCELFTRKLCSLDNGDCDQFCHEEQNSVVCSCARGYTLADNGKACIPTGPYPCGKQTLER
pIC50: −log10 of the molar value.
measurement_kind: pIC50

COc1cc(N2C[C@H](CNC(=O)c3ccc(Cl)s3)OC2=O)ccc1N1CCCN(C)C1=O [Example 35]	6.26
CCOc1cccn(-c2ccc(N3C[C@H](CNC(=O)c4ccc(Cl)s4)OC3=O)cc2C)c1=O [Example 4]	6.70
Cc1cc(N2C[C@H](CNC(=O)c3ccc(Cl)s3)OC2=O)cc(C)c1-n1cccc(OCCO)c1=O [Example 16]	6.67
CC(C)c1cc(N2C[C@H](CNC(=O)c3ccc(Cl)s3)OC2=O)ccc1N1CCCNC1=O [Example 32]	7.15

* * *

target: thrombin (Homo sapiens, UniProt P00734); assay: Thrombin-inhibitory activity of the potential inhibitors in plasma samples; conditions: citrate plasma (Octapharma); ecarin stimulation; fluorogenic thrombin substrate, 360/465 nm
pIC50: −log10 of the molar value.
Decide using pIC50: a value greater than or equal to 7 is yes (1), a smaller one is no (0).

CCCc1cc(N2C[C@H](CNC(=O)c3ccc(Cl)s3)OC2=O)ccc1-n1ccccc1=O [Example 19]	yes (1)
Cc1cc(N2C[C@H](CNC(=O)c3ccc(Cl)s3)OC2=O)ccc1-n1cccc(OCC(C)(C)O)c1=O [Example 9]	no (0)
CC(=O)COc1cccn(-c2ccc(N3C[C@H](CNC(=O)c4ccc(Cl)s4)OC3=O)cc2C)c1=O [Example 7]	no (0)
Cc1cc(N2C[C@H](CNC(=O)c3ccc(Cl)s3)OC2=O)cc(C)c1-n1cccc(OCCO)c1=O [Example 16]	yes (1)
CCOc1cccn(-c2ccc(N3C[C@H](CNC(=O)c4ccc(Cl)s4)OC3=O)cc2C)c1=O [Example 4]	no (0)
COCc1cc(N2C[C@H](CNC(=O)c3ccc(Cl)s3)OC2=O)ccc1N1CCCCC1=O [Example 27]	yes (1)
O=C(NC[C@H]1CN(c2ccc(N3CCOCCC3=O)c(C3CC3)c2)C(=O)O1)c1ccc(Cl)s1 [Example 30]	yes (1)
CCOc1nccn(-c2ccc(N3C[C@H](CNC(=O)c4ccc(Cl)s4)OC3=O)cc2C)c1=O [Example 18]	no (0)
COc1cc(N2C[C@H](CNC(=O)c3ccc(Cl)s3)OC2=O)ccc1N1CCCN(C)C1=O [Example 35]	no (0)
